# Test system: Saccharomyces cerevisiae;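 note: PSI is a weighted mean of sequencing reads over stability bins, variants kept only with over 10 reads, mCherry proximal and sfGFP distal, peptide attached via GGGS linker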
# assay comment: protein stability index of tFT-peptide fusion (C-terminal peptide) (PSI (0-1 scale)); higher = more stable (slower turnover)
# measurement setup: genetic background: das1 deletion; temperature: 30 C
Recorded measurements of protein stability index, one per entry
parameter: protein stability index

>  <sequence content>
GVRAGVRRAGVG

>  <parameter>
protein stability index

>  <result>
0.399

$$$$
>  <sequence content>
PPPPPSRPFSPP

>  <parameter>
protein stability index

>  <result>
0.687

$$$$
>  <sequence content>
PVPPRVNLLRVS

>  <parameter>
protein stability index

>  <result>
0.542

$$$$
>  <sequence content>
PVILISWQLRCY

>  <parameter>
protein stability index

>  <result>
0.0318

$$$$
>  <sequence content>
FLCLLASFVVCF

>  <parameter>
protein stability index

>  <result>
0.281

$$$$
>  <sequence content>
VFVGWVLCVVGG

>  <parameter>
protein stability index

>  <result>
0.143

$$$$
>  <sequence content>
VLAFFPLFFFLS

>  <parameter>
protein stability index

>  <result>
0.439

$$$$
>  <sequence content>
MSQVRYQRATRA

>  <parameter>
protein stability index

>  <result>
0.608

$$$$

Recorded values, source the supplement of paper PMC10724198.
